The measured values listed here are drawn from PubChem BioAssay (NCI).

# Test system: SK-MEL-2 melanoma
# procedure-summary: NCI tumour cell line growth inhibition, 48 h
Consider the following compounds; for each one, report its TGI.

Enquiry: Returns the measured TGI for the input compound. Input: `COC(=O)c1c(CC#N)cccc1CC#N`
Return: > 100 µM

Enquiry: Returns the measured TGI for the input compound. Input: `CCOP(=O)(OCC)/C(C#N)=C/c1ccco1`
Return: > 100 µM

Enquiry: Returns the measured TGI for the input compound. Input: CCOC(=O)CC[C@@H](NC(=O)c1ccc(N[C@@H]2c3cc4c(cc3C(c3cc(OC)c(O)c(OC)c3)C3C(=O)OC[C@@H]32)OCO4)cc1)C(=O)OCC (some centres undefined)
Return: 0.235 µM

Enquiry: Returns the measured TGI for the input compound. Input: `CCCCCc1c2nc(c(CCCCC)c3ccc([nH]3)c(CCCCC)c3ccc([nH]3)c(CCCCC)c3nc1C=C3)C=C2`
Return: > 100 µM

Enquiry: Returns the measured TGI for the input compound. Input: `C=C[C@H]1CN2CCc3c([nH]c4c([C@H]5CCCN5C)c(O)ccc34)[C@@H]2C[C@@H]1C[C@H]1c2[nH]c3ccccc3c2CCN1C`
Return: 3.53 µM

Enquiry: Returns the measured TGI for the input compound. Input: `CCOC(=O)CC1=CSC2=NCCN12`
Return: > 100 µM

Enquiry: Returns the measured TGI for the input compound. Input: `CCN(CC)Cc1cc(Nc2c3ccccc3nc3c2[nH]c2ccccc23)ccc1O`
Return: 2.75 µM

Enquiry: Returns the measured TGI for the input compound. Input: C[C@]12CC(c3ccccc3O1)C(C(=O)NC13CC4CC(CC(C4)C1)C3)C(=O)N2 (some centres undefined)
Return: 43 µM

Enquiry: Returns the measured TGI for the input compound. Input: `CCSc1nc(N=Cc2cccs2)c2cn[nH]c2n1`
Return: > 100 µM
